So I've got a bunch of compounds here, and I need their solubility values.
Assay: Solubility
Format: physicochemical

# input Item O=C(NC[C@H](NC(=O)c1c(Cl)cc2c(c1Cl)CCN(C(=O)c1cc(O)nc3ccccc13)C2)C(=O)O)c1cccs1 : provide solubility
# output > 100 mg/mL

# input Item Cc1cc2c(=O)n(Cc3ccccc3)ncc2cc1C(=O)N[C@@H](CNC(=O)c1cccs1)C(=O)O : provide solubility
# output > 50 mg/mL

# input Item CS(=O)(=O)c1ccc(C[C@H](NC(=O)c2c(Cl)cc3c(c2Cl)CCN(C(=O)c2cc4cccnc4[nH]2)C3)C(=O)O)o1 : provide solubility
# output > 100 mg/mL

# input Item CS(=O)(=O)c1cc(F)cc(C[C@H](NC(=O)c2c(Cl)cc3c(c2Cl)CCN(C(=O)c2ccc4ccoc4c2)C3)C(=O)O)c1 : provide solubility
# output > 100 mg/mL

# input Item CS(=O)(=O)NCCC[C@H](NC(=O)c1c(Cl)cc2c(c1Cl)CCN(C(=O)c1ccc3ccoc3c1)C2)C(=O)O : provide solubility
# output > 100 mg/mL

# input Item CS(=O)(=O)c1ccc(C[C@H](NC(=O)c2c(Cl)cc3c(c2Cl)CCN(C(=O)c2ccc4ccoc4c2)C3)C(=O)O)o1 : provide solubility
# output > 100 mg/mL

* * *

System: human mononucleocytes (PBMC) stimulated with staphylococcal enterotoxin B (SEB)
Test: cells
Assay type: cell-based
Details: read-out: EC50 Cytokine Release IL-6
pEC50: −log10 of the molar value.
Quantity measured: pEC50

# input Item O=C(NC(Cc1cc(=O)[nH]c2ccccc12)C(=O)O)c1ccc(Cl)cc1 (stereo not shown) [Rebamipide] : provide pEC50
# output < 3.00

* * *

Assay: Solubility
Assay type: physicochemical
Quantity measured: solubility

# input Item CS(=O)(=O)c1cccc(C[C@H](NC(=O)c2c(Cl)cc3c(c2Cl)CCN(C(=O)c2cc4ccccc4cn2)C3)C(=O)O)c1 : provide solubility
# output > 100 mg/mL

# input Item CS(=O)(=O)CCNC[C@H](NC(=O)c1c(Cl)cc2c(c1Cl)CCN(C(=O)c1ccc(Cl)cc1)C2)C(=O)O : provide solubility
# output > 100 mg/mL

# input Item CS(=O)(=O)c1cccc(C[C@H](NC(=O)c2c(Cl)cc3c(c2Cl)CCN(C(=O)/C=C/c2ccccc2F)C3)C(=O)O)c1 : provide solubility
# output > 100 mg/mL

# input Item C[S+]([O-])c1cc(F)cc(C[C@H](NC(=O)c2c(Cl)cc3c(c2Cl)CCN(C(=O)c2ccc(Cl)cc2)C3)C(=O)O)c1 (stereo partly shown) : provide solubility
# output > 50 mg/mL

# input Item CS(=O)(=O)c1cccc(C[C@H](NC(=O)c2c(Cl)cc3c(c2Cl)CCN(C(=O)c2cc4cccnc4[nH]2)C3)C(=O)O)c1 : provide solubility
# output > 50 mg/mL

# input Item O=C(NC[C@H](NC(=O)c1c(Cl)cc2c(c1Cl)CCN(C(=O)Nc1cccc(Cl)c1)C2)C(=O)O)c1cccs1 : provide solubility
# output > 100 mg/mL

# input Item CN1CCN(C(=O)[C@H](CNC(=O)c2cccs2)NC(=O)c2c(Cl)cc3c(c2Cl)CCN(C(=O)c2ccc(Cl)cc2)C3)CC1 : provide solubility
# output > 100 mg/mL

# input Item O=C(NC[C@H](NC(=O)c1c(Cl)cc2c(c1Cl)CCN(C(=O)c1cccc(Cl)c1)C2)C(=O)O)c1cccs1 : provide solubility
# output > 100 mg/mL

# input Item O=C(NC[C@H](NC(=O)c1c(Cl)cc(CCC(O)c2cccc(O)c2)cc1Cl)C(=O)O)c1cccs1 (stereo partly shown) : provide solubility
# output > 50 mg/mL

# input Item CS(=O)(=O)c1cccc(C[C@H](NC(=O)c2c(Cl)cc3c(c2Cl)CCN(C(=O)c2ccc4ccoc4c2)C3)C(=O)O)c1 : provide solubility
# output > 100 mg/mL

# input Item CS(=O)(=O)c1cccc(C[C@H](NC(=O)c2c(Cl)cc3c(c2Cl)CCN(C(=O)c2ccc4cn[nH]c4c2)C3)C(=O)O)c1 : provide solubility
# output > 100 mg/mL

# input Item CCc1c(C(=O)N[C@@H](CNC(=O)c2cccs2)C(=O)O)c2ccccc2n(CCCc2ccccc2)c1=O : provide solubility
# output > 100 mg/mL

# input Item CS(=O)(=O)c1cccc(C[C@H](NC(=O)c2c(Cl)cccc2Cl)C(=O)O)c1 : provide solubility
# output > 100 mg/mL

# input Item O=C(NC[C@H](NC(=O)c1c(Cl)cc2c(c1Cl)CCN(C(=O)/C=C/c1ccco1)C2)C(=O)O)c1cccs1 : provide solubility
# output > 100 mg/mL

# input Item CS(=O)(=O)c1cccc(C[C@H](NC(=O)c2c(Cl)cc3c(c2Cl)CCN(C(=O)c2cc4ccccc4[nH]2)C3)C(=O)O)c1 : provide solubility
# output > 50 mg/mL

# input Item O=C(NC[C@H](NC(=O)c1c(Cl)cc2c(c1Cl)CCN(C(=O)c1ccc3ccoc3c1)C2)C(=O)O)c1cccc(F)c1 : provide solubility
# output > 50 mg/mL
